Item-by-item account of kon
Target: T1, mfNPR1-mFc (monkey)
T1 construct: also called dimeric monkey NPR1
T1 chain: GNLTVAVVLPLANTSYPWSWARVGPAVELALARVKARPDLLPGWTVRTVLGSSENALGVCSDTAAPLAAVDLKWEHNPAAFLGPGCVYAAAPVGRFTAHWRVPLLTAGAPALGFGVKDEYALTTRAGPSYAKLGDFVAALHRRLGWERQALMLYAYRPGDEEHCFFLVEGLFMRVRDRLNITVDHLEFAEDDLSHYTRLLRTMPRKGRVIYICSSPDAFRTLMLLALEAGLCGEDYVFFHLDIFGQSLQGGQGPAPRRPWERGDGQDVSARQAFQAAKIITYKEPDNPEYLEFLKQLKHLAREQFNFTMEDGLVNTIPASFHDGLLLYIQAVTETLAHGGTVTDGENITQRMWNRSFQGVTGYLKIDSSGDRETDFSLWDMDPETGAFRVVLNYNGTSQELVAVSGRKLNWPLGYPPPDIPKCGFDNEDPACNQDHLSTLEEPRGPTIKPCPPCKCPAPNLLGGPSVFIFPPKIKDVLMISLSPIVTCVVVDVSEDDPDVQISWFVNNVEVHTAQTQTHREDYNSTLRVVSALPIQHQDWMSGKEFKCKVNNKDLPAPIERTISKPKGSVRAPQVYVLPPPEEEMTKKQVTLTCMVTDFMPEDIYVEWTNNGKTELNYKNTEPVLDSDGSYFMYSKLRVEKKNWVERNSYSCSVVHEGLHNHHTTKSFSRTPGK
Experiment: SPR, mAb captured, 25C
The reply should contain only the number, in M⁻¹ s⁻¹.

binder: mAb22033 (antibody, human IgG4, V domains shown) VH: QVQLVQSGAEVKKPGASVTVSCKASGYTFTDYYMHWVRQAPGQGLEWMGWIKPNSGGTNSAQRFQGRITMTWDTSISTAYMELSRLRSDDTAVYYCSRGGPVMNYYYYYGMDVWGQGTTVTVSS VL: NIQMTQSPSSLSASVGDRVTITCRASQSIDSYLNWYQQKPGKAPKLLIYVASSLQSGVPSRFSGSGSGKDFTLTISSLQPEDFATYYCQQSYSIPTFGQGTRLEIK
units: M⁻¹ s⁻¹
measured: 51700
--
binder: mAb25497 (antibody, human IgG4, V domains shown) VH: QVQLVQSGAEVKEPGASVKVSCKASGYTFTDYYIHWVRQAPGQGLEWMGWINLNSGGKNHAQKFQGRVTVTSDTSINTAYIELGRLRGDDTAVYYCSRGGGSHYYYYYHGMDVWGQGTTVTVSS VL: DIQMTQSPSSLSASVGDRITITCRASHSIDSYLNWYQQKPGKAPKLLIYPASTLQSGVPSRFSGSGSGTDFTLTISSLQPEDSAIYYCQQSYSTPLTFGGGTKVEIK
units: M⁻¹ s⁻¹
measured: 172000
--
binder: mAb25502 (antibody, human IgG4, V domains shown) VH: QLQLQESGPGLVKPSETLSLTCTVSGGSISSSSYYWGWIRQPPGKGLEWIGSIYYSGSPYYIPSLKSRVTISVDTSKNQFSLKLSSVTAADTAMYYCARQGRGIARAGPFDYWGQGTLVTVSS VL: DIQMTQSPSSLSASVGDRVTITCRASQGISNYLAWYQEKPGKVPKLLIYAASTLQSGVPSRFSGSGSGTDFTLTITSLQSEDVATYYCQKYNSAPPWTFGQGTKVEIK
units: M⁻¹ s⁻¹
measured: 88300

Return kon for the following binder: mAb25508 (antibody, human IgG4, V domains shown) VH: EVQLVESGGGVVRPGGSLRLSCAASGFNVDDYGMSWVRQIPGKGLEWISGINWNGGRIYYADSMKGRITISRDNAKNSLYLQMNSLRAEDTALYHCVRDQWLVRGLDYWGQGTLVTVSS VL: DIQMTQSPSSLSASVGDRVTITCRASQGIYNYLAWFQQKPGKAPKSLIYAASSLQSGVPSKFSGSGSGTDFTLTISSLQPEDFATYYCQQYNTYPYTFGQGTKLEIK
515000

Return kon for the following binder: mAb25491 (antibody, human IgG4, V domains shown) VH: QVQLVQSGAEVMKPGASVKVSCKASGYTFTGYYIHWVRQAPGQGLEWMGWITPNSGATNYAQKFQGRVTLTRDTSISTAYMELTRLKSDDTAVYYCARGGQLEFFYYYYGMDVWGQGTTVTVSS VL: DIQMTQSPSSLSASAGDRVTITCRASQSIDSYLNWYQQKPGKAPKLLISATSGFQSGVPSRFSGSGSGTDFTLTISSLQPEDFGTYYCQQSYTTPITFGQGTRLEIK
54000
